// reported IC50 per item
Molecular target: human TRPV1 receptor (hTRPV1) (Homo sapiens, UniProt Q8NER1)
Sequence (Q8NER1 whole entry): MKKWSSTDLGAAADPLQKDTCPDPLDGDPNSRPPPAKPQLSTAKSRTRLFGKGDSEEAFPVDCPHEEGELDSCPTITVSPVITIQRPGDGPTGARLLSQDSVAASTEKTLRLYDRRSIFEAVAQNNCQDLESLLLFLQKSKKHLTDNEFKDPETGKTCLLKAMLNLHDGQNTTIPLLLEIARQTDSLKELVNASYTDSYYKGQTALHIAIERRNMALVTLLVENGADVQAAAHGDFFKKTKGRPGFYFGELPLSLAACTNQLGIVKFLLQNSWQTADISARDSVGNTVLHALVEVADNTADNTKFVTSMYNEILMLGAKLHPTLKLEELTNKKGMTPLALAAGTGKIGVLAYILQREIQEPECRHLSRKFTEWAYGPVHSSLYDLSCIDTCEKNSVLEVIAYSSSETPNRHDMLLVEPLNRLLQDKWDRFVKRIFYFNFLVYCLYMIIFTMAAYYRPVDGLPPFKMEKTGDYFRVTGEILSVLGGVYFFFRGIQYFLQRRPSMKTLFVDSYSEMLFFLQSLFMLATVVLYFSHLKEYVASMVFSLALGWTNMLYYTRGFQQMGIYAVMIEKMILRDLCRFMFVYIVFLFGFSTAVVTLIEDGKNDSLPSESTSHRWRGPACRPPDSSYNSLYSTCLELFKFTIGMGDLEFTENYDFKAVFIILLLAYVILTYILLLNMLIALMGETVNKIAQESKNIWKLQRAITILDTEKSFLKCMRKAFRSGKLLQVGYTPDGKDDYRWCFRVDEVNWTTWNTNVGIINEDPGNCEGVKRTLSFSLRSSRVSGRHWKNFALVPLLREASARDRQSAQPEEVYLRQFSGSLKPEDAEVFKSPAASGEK
Assay: Capsaicin activation assay (Ca2+ influx, FLIPR)
Conditions: 0.05 μM capsaicin, 1321N1 cells expressing hTRPV1

Reference set (8 entries):
1) Cn1ncc2c(NC(=O)N[C@@H]3CC(C)(C)Oc4cc(C(F)(F)F)ccc43)cccc21	14 nM
2) O=C(Nc1cccc2c1C[C@H](O)CC2)N[C@@H]1CC(CF)(CF)Oc2cc(Cl)ccc21	35 nM
3) CC1(C)C[C@@H](NC(=O)Nc2cccc3cnccc23)c2ccc(OC(F)(F)F)cc2O1	5 nM
4) CC1(C)C[C@@H](NC(=O)Nc2cccc3c2C[C@H](O)CC3)c2ccc(OC(F)(F)F)cc2O1	23 nM
5) CCC1(CC)C[C@@H](NC(=O)Nc2cccc3ccncc23)c2ccc(F)cc2O1	18 nM
6) CC1(C)C[C@@H](NC(=O)Nc2cccc3[nH]ncc23)c2ccc(F)cc2O1	13 nM
7) CC1(C)C[C@@H](NC(=O)Nc2cccc3c2C[C@H](O)CC3)c2cc(F)cc(F)c2O1	29 nM
8) CCC1(CC)C[C@@H](NC(=O)Nc2cccc3c2cnn3C)c2ccc(C(F)(F)F)cc2O1	71 nM

# input GET IC50 | system: human TRPV1 receptor (hTRPV1) (Homo sapiens, UniProt Q8NER1) | item: CC1(C)C[C@@H](NC(=O)Nc2cccc3c2C[C@H](O)CC3)c2ccc(F)cc2O1
# output 17 nM

# input GET IC50 | system: human TRPV1 receptor (hTRPV1) (Homo sapiens, UniProt Q8NER1) | item: CC1(C)C[C@@H](NC(=O)Nc2cccc3c2C[C@H](O)CC3)c2ccccc2O1
# output 33 nM

Source: patent US8609692B2
